- Test System: UniProtKB Q6QLK5
- Sequence (Q6QLK5 whole entry, the tested form may be a part): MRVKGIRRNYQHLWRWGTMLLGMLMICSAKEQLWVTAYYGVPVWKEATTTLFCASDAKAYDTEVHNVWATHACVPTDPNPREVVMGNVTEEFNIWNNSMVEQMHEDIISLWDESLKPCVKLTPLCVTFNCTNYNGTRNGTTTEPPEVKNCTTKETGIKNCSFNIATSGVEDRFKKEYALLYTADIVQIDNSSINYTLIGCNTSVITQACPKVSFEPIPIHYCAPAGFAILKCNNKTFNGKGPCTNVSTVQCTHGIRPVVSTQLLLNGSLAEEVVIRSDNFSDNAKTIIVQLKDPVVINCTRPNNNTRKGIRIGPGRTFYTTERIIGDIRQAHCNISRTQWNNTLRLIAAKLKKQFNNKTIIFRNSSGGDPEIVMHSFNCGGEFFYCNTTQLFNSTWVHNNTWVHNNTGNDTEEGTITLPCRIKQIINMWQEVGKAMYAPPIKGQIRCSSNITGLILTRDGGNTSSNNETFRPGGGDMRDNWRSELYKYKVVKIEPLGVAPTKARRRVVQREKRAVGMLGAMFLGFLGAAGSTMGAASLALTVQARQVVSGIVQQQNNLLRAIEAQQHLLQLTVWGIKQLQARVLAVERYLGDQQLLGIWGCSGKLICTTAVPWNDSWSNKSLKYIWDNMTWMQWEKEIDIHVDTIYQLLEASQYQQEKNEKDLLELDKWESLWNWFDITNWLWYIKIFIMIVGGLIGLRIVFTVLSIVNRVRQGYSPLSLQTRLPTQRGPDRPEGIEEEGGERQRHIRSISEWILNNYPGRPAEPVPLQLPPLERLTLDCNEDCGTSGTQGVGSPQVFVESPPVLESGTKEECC
- Assay Method Text: inhibitors of HIV fusion peptide binding, primary screen, biochemical, uHTS, fluorescence dequenching (AID 1986)
The source made the active and inactive calls. Rule as the data show it: actives have a measured IC50 and inactives only a lower limit.
Some molecules, each annotated with its measured IC50.

O=C(O)c1cc(-c2ccc(-c3c(-c4ccc5c(c4)OCO5)noc3-c3ccsc3)cc2)nc2ccccc12 ... 52.2 µM (active)
O=C(CCN1C(=O)/C(=C\C=C\c2ccccc2)SC1=S)Nc1ccccc1C(=O)O ... 20.2 µM (active)
O=C(O)COc1ccccc1/C=N/Nc1ccc(S(=O)(=O)Nc2ccc(Cl)cc2)cc1[N+](=O)[O-] ... 19.6 µM (active)
O=C(Nc1cc(S(=O)(=O)N2CCCCC2)ccc1Cl)c1ccccc1NS(=O)(=O)c1ccc(F)cc1 ... 13.4 µM (active)

Let us move to another entry and its IC50.
The observed IC50 for COc1cc(/C=C2/SC(=S)NC2=O)ccc1OS(=O)(=O)c1ccc(C)cc1 when tested with UniProtKB Q6QLK5 stands at 16.5 µM (active)
